- Test system: L1210
- assay comment: In vitro cytotoxicity against mouse leukemia L1210 cell lines
- Type: functional, cell-based
pIC50: −log10 of the molar value.
recorded metric: pIC50

compound: O=C1c2c(O)ccc(O)c2C(=O)c2c(NCCNCCO)ccc(NCCNCCO)c21 [MITOXANTRONE]
recorded metric: pIC50
reported measurement: 7.00
